- target under test: activated ERK2 (Homo sapiens (Human), UniProt P28482)
- Sequence (P28482 whole entry): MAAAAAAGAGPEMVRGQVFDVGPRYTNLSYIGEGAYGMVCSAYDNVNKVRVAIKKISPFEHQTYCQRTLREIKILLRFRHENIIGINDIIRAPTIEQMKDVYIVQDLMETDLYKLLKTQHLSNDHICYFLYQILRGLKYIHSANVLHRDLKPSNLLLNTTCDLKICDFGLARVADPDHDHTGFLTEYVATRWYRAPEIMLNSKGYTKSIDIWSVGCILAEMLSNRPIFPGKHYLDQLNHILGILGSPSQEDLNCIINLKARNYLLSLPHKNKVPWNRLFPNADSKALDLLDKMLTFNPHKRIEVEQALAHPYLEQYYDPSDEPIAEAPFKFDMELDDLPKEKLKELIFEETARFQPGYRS
- assay summary: Activated ERK2 (20 pM) Kinase Assay (AlphaScreen, ERKtide phosphorylation)
- Format: biochemical
- condition details: 0.02 nM ERK2, 400 nM ERKtide peptide, 35 μM ATP, 30 min preincubation
readout kind: pIC50
Answers are plain numbers, as −log10 of the molar value.

For orientation, consider the following solved cases.
{"columns": ["compound", "measured"],
 "data": [
  ["Cc1c(-c2cnc(N)c(-c3ccc(C(=O)N[C@H](CO)c4cccc(Cl)c4)c(F)c3)c2)cnn1C [Example 151]", 10.63],
  ["CNC[C@@H](NC(=O)c1ccc(-c2nc(C3CCOCC3)cnc2N)cc1F)c1cc(F)cc(Br)c1", 10.68],
  ["Nc1ncc([C@H]2CC[C@@H](N)CC2)nc1-c1ccc(C(=O)N[C@H](CO)c2cccc(Cl)c2)c(F)c1", 8.31]
]}

I'm hoping you can list pIC50 for every compound here, please.
1. CO[C@H]1CC[C@H](c2cnc(N)c(-c3ccc(C(=O)N[C@H](CN)c4cccc(Cl)c4)c(F)c3)n2)CC1
2. Cc1cccc([C@@H](CO)NC(=O)c2ccc(-c3nc(C4CCOCC4)cnc3N)cc2F)c1
3. CO[C@H]1CC[C@H](c2cnc(N)c(-c3ccc(C(=O)NCc4ccccc4)c(F)c3)n2)CC1
4. Cn1nncc1-c1cnc(N)c(-c2ccc(C(=O)N[C@H](CO)c3cccc(Cl)c3)c(F)c2)c1

1. 10.40
2. 10.58
3. 8.03
4. 10.18

* * *

- target under test: activated ERK2 (Homo sapiens (Human))
- assay summary: Activated ERK2 (20 pM) Kinase Assay (AlphaScreen, ERKtide phosphorylation)
- Type: biochemical
- condition details: 0.02 nM ERK2, 400 nM ERKtide peptide, 35 μM ATP, 30 min preincubation
readout kind: pIC50
Answers are plain numbers, as −log10 of the molar value.

For orientation, consider the following solved cases.
{"columns": ["compound", "measured"],
 "data": [
  ["Nc1ncc([C@H]2CC[C@H](O)[C@@H](O)C2)nc1-c1ccc(C(=O)N[C@H](CO)c2cc(F)cc(Br)c2)c(F)c1 [Example 467]", 10.35],
  ["Cn1cc(-c2cnc(N)c(-c3ccc(C(=O)N[C@H](CO)C4CCCCC4)c(F)c3)c2)cn1 [Example 244]", 6.80],
  ["CSc1cccc([C@@H](CO)NC(=O)c2ccc(-c3nc([C@H]4CC[C@H](O)CC4)cnc3N)cc2F)c1 [Example 388]", 10.57]
]}

I'm hoping you can list pIC50 for every compound here, please.
1. Nc1ncc(C2CCCCC2)nc1-c1ccc(C(=O)NCc2ccccc2)c(F)c1 [Example 421]
2. C[C@@H](O)[C@@H](NC(=O)c1ccc(-c2cc(-c3cnn(C)c3)cnc2N)cc1F)c1cccc(Cl)c1 [Example 332]
3. Nc1ncc(C2CCCC(O)C2)nc1-c1ccc(C(=O)N[C@H](CO)c2cccc(Br)c2)c(F)c1 (single isomer, unassigned) [Example 385]
4. Cc1nn(C(F)F)cc1-c1cnc(N)c(-c2ccc(C(=O)N[C@H](CO)c3cc(F)cc(C(F)F)c3)c(F)c2)c1 [Example 274]

1. 8.20
2. 9.09
3. 9.91
4. 10.51

I'm hoping you can list pIC50 for every compound here, please.
1. COC(=O)N[C@H]1CC[C@H](c2cnc(N)c(-c3ccc(C(=O)N[C@H](CO)c4cc(F)cc(Br)c4)c(F)c3)n2)CC1 [Example 441]
2. Cc1nn(C)cc1-c1cnc(N)c(-c2ccc(C(=O)N[C@H](CO)c3cc(F)cc(CF)c3)c(F)c2)c1 [Example 243]
3. C[C@@H](NC(=O)c1ccc(-c2cc([C@H]3CCN(C)C(=O)C3)cnc2N)cc1F)c1ccccc1 [Example 31]
4. Cc1nn(C)cc1-c1cnc(N)c(-c2ccc(C(=O)N[C@H](CO)c3cccc(C(F)F)c3)c(F)c2)c1 [Example 277]
5. Nc1ncc([C@H]2CC[C@@H](O)CC2)cc1-c1ccc(C(=O)N[C@H](CO)c2cccc(Cl)c2)c(F)c1 [Example 440]
6. Nc1ncc([C@H]2CC[C@H](O)CC2)nc1-c1ccc(C(=O)N[C@H](CO)c2cccc(I)c2)c(F)c1 [Example 346]
7. C[C@@H](NC(=O)c1ccc(-c2cc([C@@H]3CCC(=O)N(C)C3)cnc2N)cc1F)c1cccc(Cl)c1 [Example 40]

[10.25, 10.92, 7.49, 10.15, 10.15, 10.76, 8.90]

* * *

- target under test: activated ERK2 (Homo sapiens (Human))
- assay summary: Activated ERK2 (20 pM) Kinase Assay (AlphaScreen, ERKtide phosphorylation)
- Type: biochemical
- condition details: 0.02 nM ERK2, 400 nM ERKtide peptide, 35 μM ATP, 30 min preincubation
readout kind: IC50 (nM)
Answers are plain numbers, in nM.

{"columns": ["structure smiles string", "IC50 / nM"],
 "data": [
  ["NC[C@@H](NC(=O)c1ccc(-c2nc([C@H]3CC[C@H](O)CC3)cnc2N)cc1F)c1cc(F)cc(Br)c1", 0.0173],
  ["COC(=O)NC[C@@H](NC(=O)c1ccc(-c2nc(C3CCOCC3)cnc2N)cc1F)c1cccc(Br)c1", 0.225]
]}

I'm hoping you can list IC50 for every molecule here, please.
1. Cn1nccc1-c1cnc(N)c(-c2ccc(C(=O)N[C@H](CN)c3cccc(Cl)c3)c(F)c2)c1
2. Nc1ncc(C2CCOCC2)nc1-c1ccc(C(=O)N[C@H](CO)c2cc(F)cc(Cl)c2)c(F)c1

1. 0.0209
2. 0.0222

* * *

- target under test: activated ERK2 (Homo sapiens (Human), UniProt P28482)
- assay summary: Activated ERK2 (20 pM) Kinase Assay (AlphaScreen, ERKtide phosphorylation)
- Assay type: biochemical
- condition details: 0.02 nM ERK2, 400 nM ERKtide peptide, 35 μM ATP, 30 min preincubation
readout kind: pIC50
One number for each entry, as −log10 of the molar value.

{"columns": ["structure smiles string", "target under test", "measured"],
 "data": [
  ["Cc1cc(-c2nc(C3CCOCC3)cnc2N)ccc1C(=O)N[C@H](CO)c1ccccc1", "activated ERK2 (Homo sapiens (Human), UniProt P28482)", 9.87],
  ["Nc1ncc(C2=CCCCC2)nc1-c1ccc(C(=O)NCc2ccccc2)c(F)c1", "activated ERK2 (Homo sapiens (Human), UniProt P28482)", 6.95]
]}

I'm hoping you can list pIC50 for every molecule here, please.
1. Cn1cc(-c2cnc(N)c(-c3ccc(C(=O)N[C@H](CO)c4cc(F)cc(C(F)F)c4)c(F)c3)c2)cn1
2. CNC[C@@H](NC(=O)c1ccc(-c2nc([C@H]3CC[C@H](OC)CC3)cnc2N)cc1F)c1cc(F)cc(Br)c1
3. C[C@@H](NC(=O)c1ccc(-c2nc(C3=CCOCC3)cnc2N)cc1F)c1cc(F)cc(S(C)(=O)=O)c1
4. Nc1ncc([C@H]2CC[C@H](O)CC2)nc1-c1ccc(C(=O)N[C@@H]2C[C@H]2c2ccccc2)c(F)c1

1. 9.97
2. 10.69
3. 9.66
4. 8.13

I'm hoping you can list pIC50 for every molecule here, please.
1. Cc1c(-c2cnc(N)c(-c3ccc(C(=O)N[C@H](CO)c4cc(F)cc(C(F)F)c4)c(F)c3)c2)cnn1C
2. Nc1ncc([C@H]2CC[C@H](N)CC2)nc1-c1ccc(C(=O)N[C@H](CO)c2cccc(Cl)c2)c(F)c1

1. 10.51
2. 8.83

* * *

- target under test: activated ERK2 (Homo sapiens (Human), UniProt P28482)
- assay summary: Activated ERK2 (20 pM) Kinase Assay (AlphaScreen, ERKtide phosphorylation)
- Type: biochemical
- condition details: 0.02 nM ERK2, 400 nM ERKtide peptide, 35 μM ATP, 30 min preincubation
pIC50: −log10 of the molar value.
pIC50 of 10 or higher: TRUE. Under 10: FALSE.

{"columns": ["molecule", "qualitative label"],
 "data": [
  ["Nc1ncc(C2CCOCC2)nc1-c1ccc(C(=O)N[C@H](CO)c2cc(F)cc(Br)c2)c(F)c1", "TRUE"],
  ["Nc1ncc([C@@H]2CC[C@@H](O)[C@H](F)C2)nc1-c1ccc(C(=O)N[C@H](CO)c2cc(F)cc(I)c2)c(F)c1", "TRUE"],
  ["Nc1ncc(C2CCCC(O)C2)nc1-c1ccc(C(=O)N[C@H](CO)c2cc(F)cc(Br)c2)c(F)c1 (single isomer, unassigned) [Example 386]", "TRUE"],
  ["Nc1ncc([C@H]2CC[C@H](O)CC2)cc1-c1ccc(C(=O)N[C@H](CO)c2cccc(Cl)c2)c(F)c1", "FALSE"]
]}

Check if pIC50 >= 10 (inclusive). Item: CS(=O)(=O)[C@H]1CC[C@@H](c2cnc(N)c(-c3ccc(C(=O)NCc4ccccc4)c(F)c3)n2)CC1
FALSE

Check if pIC50 >= 10 (inclusive). Item: Cc1nn(C)cc1-c1cnc(N)c(-c2ccc(C(=O)N[C@H](CO)c3cc(F)cc(C(F)F)c3)c(F)c2)c1
TRUE

Check if pIC50 >= 10 (inclusive). Item: Cc1nn(C)cc1-c1cnc(N)c(-c2ccc(C(=O)N[C@H](CO)c3cccc(Cl)c3)c(F)c2)c1
TRUE
